The entries below are paired with their reported growth.
Test system: ACHN renal
Assay: NCI-60 one-dose screen, 48 h (100 = growth as untreated, 0 = no growth, -100 = all killed)
Conditions: 10 µM unless noted
About 83,000 compounds went through this panel and 20% of them were active in at least one assay; those are over-represented in the sample as a whole. Active and inactive are the calls of the source. The calls were made as follows: active = growth percent below 10; inactive = the rest.
endpoint name: growth

# compound, assay result
measured = [
    ("COc1ccccc1/C(C)=N/NC(=O)CSc1nc2ccccc2c(=O)n1Cc1ccc(S(N)(=O)=O)cc1", "105% (inactive)"),
    ("CN1C(N2CCN(S(=O)(=O)c3ccccc3)CC2)=NS(=O)(=O)c2ccccc21", "106% (inactive)"),
    ("COc1cc2cc(Oc3cccc(NC(=O)Nc4cc(C(F)(F)F)cc(C(F)(F)F)c4)c3)c(C)nc2cc1OC", "5.82% (active)"),
    ("N=C1C(c2nc3ccccc3s2)=C(O)CN1c1cc(Cl)cc(Cl)c1", "73.4% (inactive)"),
    ("CC(Sc1nc2ccccc2c(=O)n1CCc1ccc(S(N)(=O)=O)cc1)C(=O)Nc1ccc(Cl)cc1 (centres undefined)", "86.3% (inactive)"),
    ("O=S(=O)(NCCNc1nccc(-c2c(-c3cccc(O)c3)nc3occn23)n1)c1ccccc1", "82.1% (inactive)"),
    ("NC(=NCc1ccccc1)C(N=Nc1ccccc1)C(=O)NCc1ccccc1 (centres undefined)", "92.1% (inactive)"),
    ("NS(=O)(=O)c1ccc(Cn2c(SCC(=O)N/N=C/c3ccccc3O)nc3ccccc3c2=O)cc1", "72.3% (inactive)"),
    ("Cn1cc(-c2nc(-c3c[nH]c4c(Cl)nccc34)cs2)c2cc(F)ccc21", "114% (inactive)"),
]

###

The entries below are paired with their reported growth.
Tested on: MALME-3M melanoma
Assay: NCI-60 one-dose screen, 48 h (100 = growth as untreated, 0 = no growth, -100 = all killed)
Conditions: 10 µM unless noted
The panel holds about 83,000 compounds, 20% with a hit somewhere; the sample as a whole holds those more often.

# smiles record, growth, %
measured = [
    ("C=C1C(=O)O[C@H]2[C@H]1CC/C(COC(=O)NCc1c[nH]c3ccc(Cl)cc13)=C\\CC[C@@]1(C)O[C@@H]21", -57.1),
    ("CC(=O)[C@H]1CCC/C=C/[C@@H]2C[C@H](O)C[C@H]2[C@H](O)/C=C/C(=O)O1", -11.5),
    ("O=C(N/N=C/c1cc2ccccc2n2nnnc12)Nc1ccccc1", 106),
    ("O=c1c2c(c(=O)n1O)c1c3ccc[nH]c3nc1c1nc3[nH]cccc3c12", 84.3),
    ("N/C(=N\\C(N)=N\\c1nc2ccccc2s1)c1cccc(Cl)c1", 102),
]

###

The entries below are paired with their reported growth.
Tested on: SK-MEL-28 melanoma
Assay: NCI-60 one-dose screen, 48 h (100 = growth as untreated, 0 = no growth, -100 = all killed)
Conditions: 10 µM unless noted
This is part of a sample that, as a whole, favours compounds with a hit. Of some 83,000 tested, about 20% had one in any assay.

# molecule, unit symbol, growth
records = [
    ("O=C(O)c1ccc(NCc2cn(-c3ccc(C(F)(F)F)cc3)nc2-c2ccc(C(=O)O)cc2)cc1", "%", 112),
    ("N#CC1C(C#N)C2c3ccccc3C=CN2C1C(=O)c1ccc(Br)cc1 (stereo not given)", "%", 102),
    ("CCCCCCNC(=O)Oc1ccc(/C(=C(\\C)c2ccccc2)c2ccc(OCCCN(C)C)cc2)cc1", "%", 88.3),
    ("CCN(CC)CCn1c(=O)c2cc(OC)c(OC)cc2c2ccc3cc4c(cc3c21)OCO4", "%", 53.4),
    ("COc1ccc(C(C)=O)c(OC)c1", "%", 109),
]
